Biological target: SHC-transforming protein 1 (Homo sapiens, UniProt P29353)
Sequence (P29353 whole entry): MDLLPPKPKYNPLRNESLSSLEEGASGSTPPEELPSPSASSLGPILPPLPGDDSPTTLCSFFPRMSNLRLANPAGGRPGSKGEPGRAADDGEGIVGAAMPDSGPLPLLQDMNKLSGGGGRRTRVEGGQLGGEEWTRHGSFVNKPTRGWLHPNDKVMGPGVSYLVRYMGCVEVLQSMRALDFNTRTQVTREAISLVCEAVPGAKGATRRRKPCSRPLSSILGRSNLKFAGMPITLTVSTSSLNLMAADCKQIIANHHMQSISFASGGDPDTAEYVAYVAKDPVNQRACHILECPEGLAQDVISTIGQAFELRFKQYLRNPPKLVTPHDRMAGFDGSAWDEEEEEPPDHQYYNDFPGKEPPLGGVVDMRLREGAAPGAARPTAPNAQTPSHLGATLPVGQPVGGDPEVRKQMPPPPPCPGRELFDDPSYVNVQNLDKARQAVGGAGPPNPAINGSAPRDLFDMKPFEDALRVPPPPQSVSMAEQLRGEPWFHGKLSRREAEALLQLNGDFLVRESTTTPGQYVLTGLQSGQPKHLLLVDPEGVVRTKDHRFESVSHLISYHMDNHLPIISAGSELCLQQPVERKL
*1 amine or outer side, *2 acyl side, *3 side chain or, on linkers, in order; H or OH if unused. Where a SMILES comes first, the peptide text is derived from it. [ ]: non-standard residue; d: D form. The star is where a group is joined. X2 = O=C(c1cc(N=C=S)ccc1-c1c2ccc(=O)cc-2oc2cc(O)ccc12)*; Achc(trans-4) = O=C([C@H]1CC[C@H](N[*:1])CC1)[*:2]; Phac(3-amino) = O=C(Cc1cccc(N[*:1])c1)[*:2]; pY = N[C@@H](Cc1ccc(OP(=O)(O)O)cc1)C(=O)O; X1 = O=C(C1CN([*:3])CCN1[*:1])[*:2]; 4Amb = NCc1ccc(C(=O)O)cc1
MEASURED_PROPERTY: Kd (µM)
Respond numerically; units are µM and should not be typed.

Completed entries (count: 3):
Input: State its Kd for this molecule: CC(C)C[C@H](NC(=O)CNC(=O)[C@H](CCC(N)=O)NC(=O)[C@H](Cc1ccc(OP(=O)(O)O)cc1)NC(=O)Cc1cccc(NC(=O)c2cc(N=C=S)ccc2-c2c3ccc(=O)cc-3oc3cc(O)ccc23)c1)C(=O)N[C@@H](CO)C(N)=O (X2-[Phac(3-amino)][pY]QGLS-NH2)
Output: 0.77

Input: Given the molecule CC(C)C[C@H](NC(=O)CNC(=O)[C@H](CCC(N)=O)NC(=O)[C@H](Cc1ccc(OP(=O)(O)O)cc1)NC(=O)C1CN(C(=O)c2cc(N=C=S)ccc2-c2c3ccc(=O)cc-3oc3cc(O)ccc23)CCN1)C(=O)N[C@@H](CO)C(N)=O (some centres undefined) (H-[X1](X2)[pY]QGLS-NH2) , write its reported Kd.
Output: 9.5

Input: State its Kd for this molecule: CC(C)C[C@H](NC(=O)CNC(=O)[C@H](CCC(N)=O)NC(=O)[C@H](Cc1ccc(OP(=O)(O)O)cc1)NC(=O)[C@H]1CC[C@H](NC(=O)c2cc(N=C=S)ccc2-c2c3ccc(=O)cc-3oc3cc(O)ccc23)CC1)C(=O)N[C@@H](CO)C(N)=O (X2-[Achc(trans-4)][pY]QGLS-NH2)
Output: 25.4

Others:
Input: Name the recorded Kd of the item CC(C)C[C@H](NC(=O)CNC(=O)[C@H](CCC(N)=O)NC(=O)[C@H](Cc1ccc(OP(=O)(O)O)cc1)NC(=O)c1ccc(CNC(=O)c2cc(N=C=S)ccc2-c2c3ccc(=O)cc-3oc3cc(O)ccc23)cc1)C(=O)N[C@@H](CO)C(N)=O ({X2-4Amb}-[pY]QGLS-NH2) in your answer.
Output: 12.3
